measured.on: Adrenergic receptor alpha-1 (Rattus norvegicus, UniProt P15823+P23944+P43140)
Sequence (P15823 whole entry): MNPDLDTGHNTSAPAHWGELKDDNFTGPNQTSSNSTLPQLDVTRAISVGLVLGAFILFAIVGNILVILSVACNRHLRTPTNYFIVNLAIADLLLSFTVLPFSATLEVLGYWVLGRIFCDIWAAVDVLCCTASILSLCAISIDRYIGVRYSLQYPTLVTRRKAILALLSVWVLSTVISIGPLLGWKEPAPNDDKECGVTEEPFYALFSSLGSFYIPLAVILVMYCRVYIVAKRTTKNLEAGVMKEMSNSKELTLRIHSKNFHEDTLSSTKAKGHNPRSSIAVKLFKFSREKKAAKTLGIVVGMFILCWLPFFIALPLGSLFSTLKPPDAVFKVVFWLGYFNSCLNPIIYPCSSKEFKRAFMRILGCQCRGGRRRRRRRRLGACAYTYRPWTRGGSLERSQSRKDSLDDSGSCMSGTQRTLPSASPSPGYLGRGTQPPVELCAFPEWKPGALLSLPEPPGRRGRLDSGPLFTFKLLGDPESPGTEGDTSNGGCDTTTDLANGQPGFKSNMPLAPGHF
Sequence (P23944 whole entry): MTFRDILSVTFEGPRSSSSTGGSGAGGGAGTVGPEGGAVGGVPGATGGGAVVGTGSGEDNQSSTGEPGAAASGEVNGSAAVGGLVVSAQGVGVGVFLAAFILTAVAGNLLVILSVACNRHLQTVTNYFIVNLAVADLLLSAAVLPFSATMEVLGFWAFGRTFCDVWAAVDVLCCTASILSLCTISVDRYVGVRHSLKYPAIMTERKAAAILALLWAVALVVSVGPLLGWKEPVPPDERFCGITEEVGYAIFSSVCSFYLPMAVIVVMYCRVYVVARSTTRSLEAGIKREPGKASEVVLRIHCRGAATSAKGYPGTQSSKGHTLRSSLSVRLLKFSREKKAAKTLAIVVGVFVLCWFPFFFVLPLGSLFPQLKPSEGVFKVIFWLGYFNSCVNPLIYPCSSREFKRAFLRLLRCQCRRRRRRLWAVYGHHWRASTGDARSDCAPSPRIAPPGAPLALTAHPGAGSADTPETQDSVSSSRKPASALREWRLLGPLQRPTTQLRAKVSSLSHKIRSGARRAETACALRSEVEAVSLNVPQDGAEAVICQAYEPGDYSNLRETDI
Sequence (P43140 whole entry): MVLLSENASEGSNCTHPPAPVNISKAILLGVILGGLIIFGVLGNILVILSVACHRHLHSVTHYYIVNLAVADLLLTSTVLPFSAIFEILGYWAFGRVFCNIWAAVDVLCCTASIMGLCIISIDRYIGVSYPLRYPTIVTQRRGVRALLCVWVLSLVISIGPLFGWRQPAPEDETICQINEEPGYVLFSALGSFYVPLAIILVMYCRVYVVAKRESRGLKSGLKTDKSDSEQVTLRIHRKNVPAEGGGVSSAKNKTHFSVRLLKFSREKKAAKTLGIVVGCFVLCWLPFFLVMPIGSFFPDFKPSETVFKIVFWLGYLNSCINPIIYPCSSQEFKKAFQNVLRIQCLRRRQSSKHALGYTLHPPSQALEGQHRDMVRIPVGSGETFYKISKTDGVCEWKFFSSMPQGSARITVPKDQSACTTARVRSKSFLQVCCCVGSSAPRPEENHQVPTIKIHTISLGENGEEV
protocol.notes: Antagonistic activity for Alpha-1 adrenergic receptor was measured as inhibition of phenylephrine-[…] contractions in isolated Sprague-Dawley rat anacoccygeal muscles
Format: functional
Is pA2 at least 6? Then Criterion met. If not, Criterion not met.

Say whether `Cc1ccc(N2CCN(CCNC(=O)c3ccco3)CC2)cc1` shows pA2 of 6 or more.
Criterion met

Say whether `Cc1ccc(N2CCN(CCNC(=O)c3ccncc3)CC2)cc1` shows pA2 of 6 or more.
Criterion met

Say whether `COc1ccc(Cl)cc1N1CCN(CCNC(=O)c2cccnc2)CC1` shows pA2 of 6 or more.
Criterion not met

Say whether `COc1ccc(N2CCN(CCNC(=O)c3cccnc3)CC2)cc1` shows pA2 of 6 or more.
Criterion not met

Say whether `Cc1ccc(N2CCN(CCNC(=O)c3cccnc3)CC2)cc1` shows pA2 of 6 or more.
Criterion met

Say whether `Cc1ccc(N2CCN(CCNC(=O)c3ccncc3)CC2)c(C)c1` shows pA2 of 6 or more.
Criterion met

Say whether `COc1ccccc1N1CCN(CCNC(=O)c2cccnc2)CC1` shows pA2 of 6 or more.
Criterion met

Say whether `COc1ccc(Cl)cc1N1CCN(CCNC(=O)c2ccco2)CC1` shows pA2 of 6 or more.
Criterion met

Say whether `Cc1ccc(N2CCN(CCNC(=O)c3ccco3)CC2)c(C)c1` shows pA2 of 6 or more.
Criterion met

Say whether `COc1ccc(Cl)cc1N1CCN(CCNC(=O)c2cc3ccccc3oc2=O)CC1` shows pA2 of 6 or more.
Criterion met
